Target: Lyn kinase (human) (Homo sapiens, UniProt P07948)
Construct: purchased Upstate Biotechnology, Lake Placid, N.Y
Sequence (P07948 whole entry): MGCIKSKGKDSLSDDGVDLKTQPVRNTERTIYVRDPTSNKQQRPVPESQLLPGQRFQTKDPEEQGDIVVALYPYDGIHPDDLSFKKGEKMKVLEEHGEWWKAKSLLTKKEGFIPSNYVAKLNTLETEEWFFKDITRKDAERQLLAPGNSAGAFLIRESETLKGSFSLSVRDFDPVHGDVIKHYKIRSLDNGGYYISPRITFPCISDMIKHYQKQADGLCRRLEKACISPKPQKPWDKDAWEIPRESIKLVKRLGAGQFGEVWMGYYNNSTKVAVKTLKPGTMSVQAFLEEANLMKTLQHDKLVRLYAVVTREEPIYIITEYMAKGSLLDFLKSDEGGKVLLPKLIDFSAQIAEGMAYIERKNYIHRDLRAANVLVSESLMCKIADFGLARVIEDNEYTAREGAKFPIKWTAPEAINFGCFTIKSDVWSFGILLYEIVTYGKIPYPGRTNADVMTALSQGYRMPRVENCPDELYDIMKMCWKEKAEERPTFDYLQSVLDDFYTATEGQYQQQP
Test: Lyn Kinase Assay
Assay type: biochemical
Conditions: test concentration of 2 μM
Experimental: A mixture of a 10× kinase buffer (500 mM MOPS at pH 7.5, 1 mM EGTA, 1 mM Sodium Vanadate, 1% β-mercaptoethanol and 100 mM Magnesium Acetate), ATP (5 μM final from a 10 mM stock), polyGluTyr (0.1 mg/mL final from a 1 mg/mL stock), γ-^33P ATP (10 μCl/μL stock) and water (for a total of 20 μL/well) was added to each well of a Streptavidin Flashplate. Test compound in 100% DMSO (0.5 μL) was added to the appropriate wells. […]
Readout kind: inhibition at 2 µM (%)
Answers are plain numbers, in %.

Known results for compounds:
{"Compound": "CC(C)(C)OC(=O)N1CCC(NC(=O)c2sc3ncnc4c3c2NC(=O)N4c2ccc(N3CCOCC3)cc2)CC1", "Readout kind": "inhibition at 2 µM", "Measured number": 19}
{"Compound": "O=C(Nc1ccc(CN2CCCCC2)cc1)c1sc2ncnc3c2c1NC(=O)N3c1ccc(Oc2ccccc2)cc1", "Readout kind": "inhibition at 2 µM", "Measured number": 27}
{"Compound": "COc1ccc(Cl)c(N2C(=O)Nc3c(C(=O)Nc4ccc(OC)c(OC)c4)sc4ncnc2c34)c1", "Readout kind": "inhibition at 2 µM", "Measured number": 50}

The following compounds each have a reported value; give each one's inhibition at 2 µM.
1. O=C(Nc1ccc(CN2CCCCC2)cc1)c1sc2ncnc3c2c1NC(=O)N3c1ccc(Oc2ccccc2)c(Cl)c1
2. O=C(Nc1ccc(N2CCOCC2)cc1)c1sc2ncnc3c2c1NC(=O)N3c1ccc(N2CCOCC2)cc1
3. O=C(Nc1ccc(CN2CCCCC2)cc1)c1sc2ncnc3c2c1NC(=O)N3c1ccc(Cc2ccccc2)cc1
4. COc1ccc(N2C(=O)Nc3c(C(=O)Nc4ccc(CN5CCOCC5)cc4)sc4ncnc2c34)cc1Cl
5. O=C(Nc1ccc(NCCCN2CCOCC2)nc1)c1sc2ncnc3c2c1NC(=O)N3c1cccc(Br)c1

## Result
[46, 21, 35, 3, 26]

###

Molecular target: c-Src kinase (human) (Homo sapiens)
Construct: purchased Upstate Biotechnology, Lake Placid, N.Y
Sequence (P12931 whole entry): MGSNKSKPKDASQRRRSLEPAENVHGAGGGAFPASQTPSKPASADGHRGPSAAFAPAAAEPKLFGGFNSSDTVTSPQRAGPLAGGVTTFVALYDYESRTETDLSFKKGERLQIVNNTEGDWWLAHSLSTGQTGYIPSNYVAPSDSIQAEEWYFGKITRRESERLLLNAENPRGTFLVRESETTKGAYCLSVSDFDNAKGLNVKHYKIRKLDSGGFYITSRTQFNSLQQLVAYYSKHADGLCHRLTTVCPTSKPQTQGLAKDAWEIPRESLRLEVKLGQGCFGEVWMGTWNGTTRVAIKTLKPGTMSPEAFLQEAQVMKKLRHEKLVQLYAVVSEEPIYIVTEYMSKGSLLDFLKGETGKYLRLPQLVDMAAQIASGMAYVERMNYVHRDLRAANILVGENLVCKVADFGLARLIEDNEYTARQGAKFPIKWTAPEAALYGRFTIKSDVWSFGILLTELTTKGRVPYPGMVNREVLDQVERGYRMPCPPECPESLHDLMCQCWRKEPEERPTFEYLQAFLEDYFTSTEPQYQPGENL
Assay: c-Src Kinase Assay
Format: biochemical
Settings: test concentration of 2 μM; multiple values are separate assay results
I'd appreciate it if you could supply inhibition at 2 µM values for the items below.
Answers are plain numbers, in %.

The following compounds each have a reported value; give each one's inhibition at 2 µM.
1. O=C(Nc1ccc(NCCCN2CCOCC2)nc1)c1sc2ncnc3c2c1NC(=O)N3c1ccc(Br)cc1F
2. O=C(Nc1ccc(CN2CCCCC2)cc1)c1sc2ncnc3c2c1NC(=O)N3c1ccc(F)c(Br)c1
3. COc1cc(NC(=O)c2sc3ncnc4c3c2NC(=O)N4c2ccc(Br)cc2F)ccc1OCCN1CCOCC1
4. COc1ccc(N2C(=O)Nc3c(C(=O)Nc4ccc(CN5CCCCC5)cc4)sc4ncnc2c34)cc1Cl
5. COc1cc(NC(=O)c2sc3ncnc4c3c2NC(=O)N4c2cc(OC)c(OC)c(OC)c2Cl)ccc1OCC1CCCCO1 (stereo not shown)
6. COc1cc(N2C(=O)Nc3c(C(=O)Nc4ccc(OC)c(OC)c4)sc4ncnc2c34)ccc1Br

## Result
[44, 18, 16, -1, 1, 43]

The following compounds each have a reported value; give each one's inhibition at 2 µM.
1. COc1cc(N2C(=O)Nc3c(C(=O)N4CCCC4)sc4ncnc2c34)c(Cl)cc1Cl
2. Cc1ccc(Br)cc1N1C(=O)Nc2c(C(=O)Nc3ccc(CN4CCOCC4)cc3)sc3ncnc1c23
3. CN1CCN(Cc2ccc(NC(=O)c3sc4ncnc5c4c3NC(=O)N5c3cc(OCc4cccc(F)c4)c(Cl)cc3Cl)cc2)CC1
4. COc1cc(N2C(=O)Nc3c(C(=O)Nc4ccc(OC)c(OC)c4)sc4ncnc2c34)c(Cl)cc1Cl
5. COc1cc(NC(=O)c2sc3ncnc4c3c2NC(=O)N4c2ccc(F)cc2Cl)ccc1OCCN1CCCCC1
6. O=C(O)c1sc2ncnc3c2c1NC(=O)N3c1ccc(Oc2ccccc2)cc1

## Result
[30, 31, -2, 7, 67, -21]

The following compounds each have a reported value; give each one's inhibition at 2 µM.
1. Cc1cccc(Cl)c1N1C(=O)Nc2c(C(=O)Nc3ccc(CN4CCCCC4)cc3)sc3ncnc1c23
2. COc1cc(N2C(=O)Nc3c(C(=O)O)sc4ncnc2c34)c(Cl)cc1Cl
3. O=C(O)c1sc2ncnc3c2c1NC(=O)N3c1ccc(Oc2ccccc2)c(F)c1

## Result
1. 61
2. 18
3. -16

## Task Provide the documented inhibition at 2 µM with c-Src kinase (human) (Homo sapiens) as the system for `COc1ccc(NC(=O)c2sc3ncnc4c3c2NC(=O)N4c2cc(Cl)ccc2OC)cc1OC`
## Result -17

###

I'd appreciate it if you could supply pIC50 values for the items below.
Tested on: HCT-116 colon carcinoma
Test: Cell Proliferation Inhibition Assay, HCT-116 (14C-thymidine)
Format: cell-based
Conditions: Homo sapiens, HCT-116 cell proliferation
Give bare numbers, as −log10 of the molar value.

{"Smiles structure": "CCOC(=O)c1sc2ncnc3c2c1NC(=O)N3c1ccc(C)c(Br)c1", "Study system": "HCT-116 colon carcinoma", "pIC50": 4.00}
{"Smiles structure": "O=C(Nc1ccc(CN2CCOCC2)cc1)c1sc2ncnc3c2c1NC(=O)N3c1ccc(Oc2ccc(F)cc2)cc1", "Study system": "HCT-116 colon carcinoma", "pIC50": 5.00}
{"Smiles structure": "O=C(O)c1sc2ncnc3c2c1NC(=O)N3c1ccc2c(ccn2Cc2cccc(F)c2)c1", "Study system": "HCT-116 colon carcinoma", "pIC50": 4.00}
{"Smiles structure": "CN1CCC(NC(=O)c2sc3ncnc4c3c2NC(=O)N4c2ccc(Oc3ccc(F)cc3)cc2)CC1", "Study system": "HCT-116 colon carcinoma", "pIC50": 5.00}

The following molecules each have a reported value; give each one's pIC50.
1. O=C(Nc1ccc(CN2CCCCC2)cc1)c1sc2ncnc3c2c1NC(=O)N3c1ccc2c(cnn2Cc2cccc(F)c2)c1
2. O=C(Nc1ccc(CN2CCOCC2)cc1)c1sc2ncnc3c2c1NC(=O)N3c1cccc(Br)c1
3. Cc1ccc(N2C(=O)Nc3c(C(=O)Nc4ccc(CN5CCOCC5)cc4)sc4ncnc2c34)cc1Br
4. CCOC(=O)c1sc2ncnc3c2c1NC(=O)N3c1cc(Br)ccc1C

## Result
1. 4.85
2. 4.17
3. 4.00
4. 4.00

###

Biological target: HER-2 (Homo sapiens, UniProt P04626)
Construct: His6 with thrombin site (N); purchased Proqinase (Freiburg, Germany)
Sequence (P04626 679-1255): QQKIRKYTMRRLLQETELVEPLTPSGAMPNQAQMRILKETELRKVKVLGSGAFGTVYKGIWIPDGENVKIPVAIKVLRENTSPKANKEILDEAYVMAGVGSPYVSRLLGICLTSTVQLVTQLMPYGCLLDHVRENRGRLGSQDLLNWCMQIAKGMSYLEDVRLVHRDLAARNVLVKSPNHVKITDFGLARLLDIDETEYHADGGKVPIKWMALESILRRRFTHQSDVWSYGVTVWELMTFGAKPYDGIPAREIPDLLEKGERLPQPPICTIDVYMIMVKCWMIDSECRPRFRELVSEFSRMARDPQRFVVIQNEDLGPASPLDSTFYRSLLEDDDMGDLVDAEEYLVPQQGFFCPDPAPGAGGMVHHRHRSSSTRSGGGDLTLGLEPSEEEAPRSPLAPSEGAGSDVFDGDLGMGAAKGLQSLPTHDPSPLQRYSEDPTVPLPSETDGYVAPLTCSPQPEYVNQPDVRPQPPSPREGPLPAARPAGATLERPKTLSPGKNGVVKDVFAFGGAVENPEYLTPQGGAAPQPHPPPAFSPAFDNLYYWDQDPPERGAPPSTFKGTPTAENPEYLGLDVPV
Test: HER-2 Kinase Assay
Type: biochemical
Settings: test concentration of 1 μM
Readout kind: inhibition at 1 µM (%)
Numbers only, in %.

{"Smiles structure": "CN(Cc1ccc(NC(=O)c2sc3ncnc4c3c2NC(=O)N4c2cc(OCc3cccc(F)c3)c(Cl)cc2Cl)cc1)C[C@H]1CCCO1", "Study system": "HER-2 (Homo sapiens, UniProt P04626)", "Result units": "%", "inhibition at 1 µM": -18}
{"Smiles structure": "COc1cc(NC(=O)c2sc3ncnc4c3c2NC(=O)N4c2cc(OCc3cccc(F)c3)c(Cl)cc2Cl)ccc1OCCN1CCCCC1", "Study system": "HER-2 (Homo sapiens, UniProt P04626)", "Result units": "%", "inhibition at 1 µM": -6}
{"Smiles structure": "O=C(O)c1sc2ncnc3c2c1NC(=O)N3c1cc(OCc2cccc(F)c2)c(Cl)cc1Cl", "Study system": "HER-2 (Homo sapiens, UniProt P04626)", "Result units": "%", "inhibition at 1 µM": -27}

The following compounds each have a reported value; give each one's inhibition at 1 µM.
1. COc1ccc(Cl)c(N2C(=O)Nc3c(C(=O)Nc4ccc(CN5CCOCC5)cc4)sc4ncnc2c34)c1
2. COc1ccc(N2C(=O)Nc3c(C(=O)Nc4ccc(CN5CCCCC5)cc4)sc4ncnc2c34)c(F)c1
3. COc1ccc(NC(=O)c2sc3ncnc4c3c2NC(=O)N4c2cc(Cl)ccc2OC)cc1OC

## Result
[28, 11, -14]

## Task Please report the recorded inhibition at 1 µM for `O=C(Nc1ccc(CN2CCCCC2)cc1)c1sc2ncnc3c2c1NC(=O)N3c1ccccc1Cl` .
## Result 18

###

Target: Lyn kinase (human) (Homo sapiens, UniProt P07948)
Construct: purchased Upstate Biotechnology, Lake Placid, N.Y
Assay: Lyn Kinase Assay
Format: biochemical
Conditions: test concentration of 2 μM
Threshold check on inhibition at 2 µM: at or above 30% gives class 1, strictly below gives class 0.

Answered cases to consult:
{"Compound": "COc1cc(N2C(=O)Nc3c(C(=O)Nc4ccc(CN5CCCC5)cc4)sc4ncnc2c34)c(Cl)cc1Cl [Cpd 43]", "Category": "class 1"}
{"Compound": "O=C(Nc1ccc(CN2CCOCC2)cc1)c1sc2ncnc3c2c1NC(=O)N3c1ccc(F)c(Br)c1 [Cpd 153]", "Category": "class 0"}
{"Compound": "O=C(Nc1ccc(CN2CCOCC2)cc1)c1sc2ncnc3c2c1NC(=O)N3c1ccc(Oc2ccccc2)c(Cl)c1 [Cpd 138]", "Category": "class 1"}
{"Compound": "C[C@H](c1ccccc1)N1C(=O)Nc2c(C(=O)NC3CCN(C)CC3)sc3ncnc1c23 [Cpd 173]", "Category": "class 0"}
{"Compound": "CN1CCN(Cc2ccc(NC(=O)c3sc4ncnc5c4c3NC(=O)N5c3ccccc3Cl)cc2)CC1 [Cpd 151]", "Category": "class 1"}
{"Compound": "Cc1ccc(N2C(=O)Nc3c(C(=O)NC4CCN(C)CC4)sc4ncnc2c34)cc1Br [Cpd 116]", "Category": "class 0"}
{"Compound": "O=C(NCCCO)c1sc2ncnc3c2c1NC(=O)N3c1ccc(Oc2ccccc2)cc1 [Cpd 106]", "Category": "class 0"}
{"Compound": "O=C(Nc1ccc(CN2CCCCC2)cc1)c1sc2ncnc3c2c1NC(=O)N3c1ccc(Oc2cccc(F)c2)cc1 [Cpd 131]", "Category": "class 1"}

Now let's try a different one.
## Task Threshold query (inhibition at 2 µM >= 30%) on O=C(Nc1ccc(N2CCOCC2)cc1)c1sc2ncnc3c2c1NC(=O)N3c1ccc2c(ccn2Cc2cccc(F)c2)c1 [Cpd 94]
## Result class 0
